Cited source for all entries: patent EP4725969A1

biological target: T1, recombinant human HER2 extracellular domain protein (human, UniProt P04626 23-652); assay: BLI, Protein A capture
T1 construct: range 23-652; Range is printed for the immunogen/panning protein; also called ErbB2; recombinant HER2 protein
Reported koff values are given for each entry in this list.
Answer in s⁻¹, number only, no unit symbol.

Hu2117HK-Mu30 (Fc fusion, not shown: a dimerising Fc or GST; small tags and cut ends, scFv-hIgG1 Fc) scFv: EVQLVESGGGLVQPGGSLRLSCAASGFTYSSYGMSWVRQAPGKGLEWVASISGGGSYTKYPDSVKGRFTISRDNSKNTLYLQMNSLRAEDTAVYYCARDYAGFFDVWGQGTLVTVSSGGGGSGGGGSGGGGSDIQMTQSPSSLSASVGDRVTITCRSSQSLVDSNGNTYLHWYQQKPGKAPKLLIYKVSNRFSGVPSRFSGSGSGTDFTLTISSLQPEDFATYFCSQSTHVPYTFGQGTKVEIK :: 0.000301
Hu2117HK-Mu14 (Fc fusion, scFv-hIgG1 Fc; not shown: human IgG1 Fc) scFv: EVQLVESGGGLVQPGGSLRLSCAASGFTYSSYGMSWVRQAPGKGLEWVASISGGGSYTKYPGSVKGRFTISRDNSKNTLYLQMNSLRAEDTAVYYCARDYAGFFDVWGQGTLVTVSSGGGGSGGGGSGGGGSDIQMTQSPSSLSASVGDRVTITCRSSQSLVHSNGNTYLHWYQQKPGKAPKLLIYKVSNRFSGVPSRFSGSGSGTDFTLTISSLQPEDFATYFCSQSTHVPYTFGQGTKVEIK :: 0.000624

Hu2117HK-Mu01 (Fc fusion, scFv-hIgG1 Fc; not shown: human IgG1 Fc) scFv: EVQLVESGGGLVQPGGSLRLSCAASGFTYSSYGMSWVRQAPGKGLEWVASISGGGSYTKYPDSVKGRFTISRDNSKNTLYLQMNSLRAEDTAVYYCARDYAGFFDVWGQGTLVTVSSGGGGSGGGGSGGGGSDIQMTQSPSSLSASVGDRVTITCRSSQSLVHSNGNTYLHWYQQKPGKSPKLLIYKVSNRFSGVPSRFSGSGSGTDFTLTISSLQPEDFATYFCSQSTHVPYTFGQGTKVEIK yielded koff of 0.000718
